Just for reference, ChEMBL document CHEMBL1151695 is where these values come from.

- Tested on: Mus musculus
- Test: Effect on passive avoidance in mouse assessed as latency time to enter dark room in training session at 10 mg/kg, ip treated 20 mins before training session
- Format: functional
- Condition Details: route intraperitoneal
Assign label 1 whenever Activity does not fall below 20 s; assign label 0 whenever it does.

Reference set (2 entries):
molecule=CCC(=O)N[C@H]1CC[C@@H](NS(=O)(=O)c2ccc(F)cc2)CC1 test_target="Mus musculus" qualitative_label="label 1"
molecule=CC(=O)N[C@H]1CC[C@@H](NS(=O)(=O)c2ccc(F)cc2)CC1 test_target="Mus musculus" qualitative_label="label 1"

(Q) Record `CCC(=O)N[C@H]1CC[C@@H](NC(=O)CC)CC1` ; criterion: Activity no lower than 20 s. Met?
(A) label 1

(Q) Record CC(C)S(=O)(=O)N1CCN2C(=O)CCC2C1 (stereo not given) ; criterion: Activity no lower than 20 s. Met?
(A) label 0

(Q) Record `CC(C)S(=O)(=O)Nc1ccc(NS(=O)(=O)c2ccc(F)cc2)cc1` ; criterion: Activity no lower than 20 s. Met?
(A) label 1
